Value source: patent US9624209B2

experimental-target: vanilloid receptor 1 (VR1/TRPV1 receptor) (Homo sapiens)
Construct: expressed in transfected cells; host or cells: CHO K1 cells (ECACC), stably transfected
Sequence (Q8NER1 whole entry): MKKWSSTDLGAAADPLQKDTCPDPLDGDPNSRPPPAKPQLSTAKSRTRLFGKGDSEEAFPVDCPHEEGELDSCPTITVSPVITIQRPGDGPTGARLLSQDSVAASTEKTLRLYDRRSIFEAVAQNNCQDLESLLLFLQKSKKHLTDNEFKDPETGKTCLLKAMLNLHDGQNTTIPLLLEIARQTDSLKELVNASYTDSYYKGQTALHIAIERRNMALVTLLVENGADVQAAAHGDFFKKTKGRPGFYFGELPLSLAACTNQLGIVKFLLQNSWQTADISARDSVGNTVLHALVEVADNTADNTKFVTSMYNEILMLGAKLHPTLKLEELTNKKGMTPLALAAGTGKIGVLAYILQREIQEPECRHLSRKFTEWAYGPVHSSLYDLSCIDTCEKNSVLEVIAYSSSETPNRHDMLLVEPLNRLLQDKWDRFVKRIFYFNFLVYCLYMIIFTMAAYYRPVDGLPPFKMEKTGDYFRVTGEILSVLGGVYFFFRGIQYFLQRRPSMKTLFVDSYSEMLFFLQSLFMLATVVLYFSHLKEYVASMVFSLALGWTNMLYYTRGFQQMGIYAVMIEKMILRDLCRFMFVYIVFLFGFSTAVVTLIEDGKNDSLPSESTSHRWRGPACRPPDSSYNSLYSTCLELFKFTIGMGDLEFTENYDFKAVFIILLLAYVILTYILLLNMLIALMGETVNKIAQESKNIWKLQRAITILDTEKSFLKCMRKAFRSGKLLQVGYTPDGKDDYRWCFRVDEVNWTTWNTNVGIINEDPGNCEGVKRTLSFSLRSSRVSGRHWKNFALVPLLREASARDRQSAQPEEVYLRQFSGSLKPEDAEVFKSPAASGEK
assay-remarks: VR1/TRPV1 receptor affinity, capsaicin stimulus (human)
Type: cell-based, human being
setup-conditions: Tables 8-12, read-out: (f) Ki (human being) [nM] Cap
measure-name: Ki (nM)
Please respond with the number in nM and leave the unit unwritten.

q: Enter Ki (test system vanilloid receptor 1 (VR1/TRPV1 receptor) (Homo sapiens)) for CC(C(=O)NCc1cc(C(C)(C)C)nn1-c1cccc(Cl)c1)c1ccc(CNS(C)(=O)=O)c(Cl)c1 (stereo not shown)
a: 1

q: Enter Ki (test system vanilloid receptor 1 (VR1/TRPV1 receptor) (Homo sapiens)) for CC(C(=O)NCc1cc(C(C)(C)C)nn1-c1ccc(F)cc1)c1ccc(CNS(C)(=O)=O)c(F)c1 (stereo not shown)
a: 30

q: Enter Ki (test system vanilloid receptor 1 (VR1/TRPV1 receptor) (Homo sapiens)) for NS(=O)(=O)NCc1ccc(NC(=O)NCc2cc(C3CC3)nn2-c2cccc(Cl)c2)cc1F
a: 8

q: Enter Ki (test system vanilloid receptor 1 (VR1/TRPV1 receptor) (Homo sapiens)) for CC(C)(C)c1cc(CNC(=O)Nc2ccc(CNS(C)(=O)=O)cc2)n(-c2cccc(F)c2)n1
a: 31

====

Provide the recorded Ki for the entries that follow.
experimental-target: vanilloid receptor 1 (VR1/TRPV1 receptor) (Homo sapiens)
Construct: expressed in transfected cells; host or cells: CHO K1 cells (ECACC), stably transfected
assay-remarks: VR1/TRPV1 receptor affinity, capsaicin stimulus (human)
Format: cell-based, human being
setup-conditions: Tables 8-12, read-out: (f) Ki (human being) [nM] Cap
Please respond with the number in nM and leave the unit unwritten.

q: Enter Ki (test system vanilloid receptor 1 (VR1/TRPV1 receptor) (Homo sapiens)) for CC(C)c1cccc(-n2nc(C(F)(F)F)cc2CNC(=O)Nc2ccc(CNS(C)(=O)=O)c(F)c2)c1
a: 3

q: Enter Ki (test system vanilloid receptor 1 (VR1/TRPV1 receptor) (Homo sapiens)) for CC(C(=O)NCc1cc(C(C)(C)C)nn1-c1ccc(F)c(Cl)c1)c1ccc(CNS(N)(=O)=O)c(F)c1 (stereo not shown)
a: 0.9

q: Enter Ki (test system vanilloid receptor 1 (VR1/TRPV1 receptor) (Homo sapiens)) for CC(C(=O)NCc1cc(C(C)(C)C)nn1-c1cccc(F)c1)c1ccc(CS(C)(=O)=O)c(F)c1 (stereo not shown)
a: 30

q: Enter Ki (test system vanilloid receptor 1 (VR1/TRPV1 receptor) (Homo sapiens)) for Cc1cccc(-n2nc(C(F)(F)F)cc2CNC(=O)Nc2ccc(CNS(C)(=O)=O)cc2)c1
a: 24

====

experimental-target: vanilloid receptor 1 (VR1/TRPV1 receptor) (Homo sapiens)
Construct: expressed in transfected cells; host or cells: CHO K1 cells (ECACC), stably transfected
assay-remarks: VR1/TRPV1 receptor affinity, capsaicin stimulus (human)
Format: cell-based, human being
setup-conditions: Tables 8-12, read-out: (f) Ki (human being) [nM] Cap
Provide the recorded Ki for the entries that follow.
Please respond with the number in nM and leave the unit unwritten.

q: Enter Ki (test system vanilloid receptor 1 (VR1/TRPV1 receptor) (Homo sapiens)) for CCC(=O)c1ccc(C(C)C(=O)NCc2cc(C(F)(F)F)nn2-c2cccc(F)c2)cc1F (stereo not drawn) [Example E1]
a: 24

q: Enter Ki (test system vanilloid receptor 1 (VR1/TRPV1 receptor) (Homo sapiens)) for CC(C)c1cccc(-n2nc(C(F)(F)F)cc2CNC(=O)C(C)c2ccc(CNS(C)(=O)=O)c(F)c2)c1 (stereo not drawn)
a: 0.8

q: Enter Ki (test system vanilloid receptor 1 (VR1/TRPV1 receptor) (Homo sapiens)) for COc1cccc(-n2nc(C(F)(F)F)cc2CNC(=O)Nc2ccc(CNS(N)(=O)=O)c(F)c2)c1
a: 41

q: Enter Ki (test system vanilloid receptor 1 (VR1/TRPV1 receptor) (Homo sapiens)) for CC(C(=O)NCc1cc(C(F)(F)F)nn1-c1cccc(Cl)c1)c1ccc(CNS(C)(=O)=O)c(F)c1 (stereo not drawn)
a: 5

q: Enter Ki (test system vanilloid receptor 1 (VR1/TRPV1 receptor) (Homo sapiens)) for CC(C)c1cccc(-n2nc(C(F)(F)F)cc2CNC(=O)Nc2ccc(CCS(C)(=O)=O)c(F)c2)c1
a: 4

q: Enter Ki (test system vanilloid receptor 1 (VR1/TRPV1 receptor) (Homo sapiens)) for CC(C(=O)NCc1cc(C(F)(F)F)nn1-c1cccc(Cl)c1)c1ccc(CN(C)S(C)(=O)=O)c(F)c1 (stereo not drawn)
a: 59

q: Enter Ki (test system vanilloid receptor 1 (VR1/TRPV1 receptor) (Homo sapiens)) for CC(C)c1cccc(-n2nc(C(F)(F)F)cc2CNC(=O)Nc2ccc(CNS(N)(=O)=O)c(F)c2)c1
a: 2

q: Enter Ki (test system vanilloid receptor 1 (VR1/TRPV1 receptor) (Homo sapiens)) for CC(C)(C)c1cc(CNC(=O)Nc2ccc(CCS(C)(=O)=O)c(F)c2)n(-c2cccc(Cl)c2)n1
a: 13

q: Enter Ki (test system vanilloid receptor 1 (VR1/TRPV1 receptor) (Homo sapiens)) for CC(C(=O)NCc1cc(C(F)(F)F)nn1-c1cccc(F)c1)c1ccc(CS(C)(=O)=O)c(F)c1 (stereo not drawn)
a: 75

q: Enter Ki (test system vanilloid receptor 1 (VR1/TRPV1 receptor) (Homo sapiens)) for CC(C(=O)NCc1cc(C(C)(C)C)nn1-c1ccc(F)c(Cl)c1)c1ccc(CS(C)(=O)=O)c(F)c1 (stereo not drawn)
a: 48

q: Enter Ki (test system vanilloid receptor 1 (VR1/TRPV1 receptor) (Homo sapiens)) for NS(=O)(=O)NCc1ccc(NC(=O)NCc2cc(C(F)(F)F)nn2-c2cccc(Cl)c2)cc1F
a: 74

q: Enter Ki (test system vanilloid receptor 1 (VR1/TRPV1 receptor) (Homo sapiens)) for CC(C)(C)c1cc(CNC(=O)Nc2ccc(CNS(N)(=O)=O)cc2)n(-c2cccc(Cl)c2)n1
a: 6

q: Enter Ki (test system vanilloid receptor 1 (VR1/TRPV1 receptor) (Homo sapiens)) for NS(=O)(=O)NCc1ccc(NC(=O)NCc2cc(C(F)(F)F)nn2-c2cccc(Cl)c2)cc1
a: 9

q: Enter Ki (test system vanilloid receptor 1 (VR1/TRPV1 receptor) (Homo sapiens)) for CS(=O)(=O)CCc1ccc(NC(=O)NCc2cc(C(F)(F)F)nn2-c2cccc(Cl)c2)cc1F
a: 40

q: Enter Ki (test system vanilloid receptor 1 (VR1/TRPV1 receptor) (Homo sapiens)) for CC(C)(C)c1cc(CNC(=O)Nc2ccc(CNS(N)(=O)=O)cc2)n(-c2ccc(F)c(F)c2)n1
a: 37
